Measured IC50, IL-8 release, HEKa stimulated with IL-36β by item
TARGET OR SYSTEM: human IL-1RAcP on cells (human, UniProt Q9NPH3 21-570)
ASSAY NOTES: cell-based or functional assay
Give a bare numeral; the unit nM is implied.

* Y024149_h_IgG1f_AEASS (antibody, V domains shown, Human IgG1f with AEASS effector-silencing residues, kappa light chain) VH: EVQLVESGGGLVQPGGSLRLSCAASGGTFGGSAMHWVRQAPGKGLVWVSRILTYGGIATYAESVKGRFTISRDNAKNTLYLQMNSLRAEDTAVYYCARGSSEYPKFDIWGQGTLVTVSS VL: DIQMTQSPSTLSASVGDRVTITCRASQSISSWLAWYQQKPGKAPKLLIYDASSLESGVPSRFSGSGSGTEFTLTISSLQPEDFATYYCHQLLIYPHTFGQGTKVEIKR | 0.094
* Y024084_h_IgG1f_AEASS (antibody, V domains shown, also called Morphosys 24084; Mor Y024084) VH: QVQLVQSGAEVKKPGASVKVSCKASGYTFTSYYMHWVRQAPGQGLEWMGIINPSGGSTSYAQKFQGRVTMTRDTSTSTVYMELSSLRSEDTAVYYCARGFVTSGIDYWGQGTLVTVSS VL: QSVLTQPPSVSAAPGQKVTISCSGSSSNIGNNYVSWYQQLPGTAPKLLIYDNNKRPSGIPDRFSGSKSGTSATLGITGLQTEDEADYYCQTWTYTGRLWIVFGGGTKLTVLG | 0.029

Please examine the following record next.
Query block: Which IC50, IL-8 release, HEKa stimulated with IL-36β value is on record for Y024148_h_IgG1f_AEASS (antibody, V domains shown, Human IgG1f with AEASS effector-silencing residues, kappa light chain) VH: EVQLVESGGGLVQPGGSLRLSCAASGGTIGGSAVHWVRQAPGKGLVWVSRILTYSSTTQYAESVKGRFTISRDNAKNTLYLQMNSLRAEDTAVYYCARGSSEYPKFDIWGQGTLVTVSS VL: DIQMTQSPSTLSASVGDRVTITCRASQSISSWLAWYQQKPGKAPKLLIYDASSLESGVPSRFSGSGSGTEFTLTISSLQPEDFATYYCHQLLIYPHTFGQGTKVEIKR ?
Result block: 0.2
